Assay: NCI Yeast Anticancer Drug Screen. Data for the mec2-1 strain (AID 157)
Settings: S. cerevisiae mec2-1 strain, at 5.0 µM (retest, dose inferred, filed as 0.5)
The panel holds about 79,000 compounds, 15% with a hit somewhere; the sample as a whole holds those more often. Active and inactive are the calls of the source. No stated cut-off is given here; in the data, active means growth inhibition above about 70%; inactive means the rest.
Possible outcomes: YES (active), NO (inactive)

• OCC(O)C(OC1OC(CO)C(O)C(O)C1O)C(O)C(/C=N/Nc1ccc(Br)cc1)=N/Nc1ccc(Br)cc1 (stereo unspecified) = NO
• CCOC1(OCC)Oc2c(Cl)c(Cl)c(Cl)c(Cl)c2OC1(OCC)OCC = NO
• CN(C)COC(=S)SCN(C)C = YES
• CC(C)(C)c1ccc(O)c(C2CCCCC2)c1 = NO
• Cc1cccc2c1C1OC(=O)C3CCC=C2C31 (stereo unspecified) = NO
• CCC(CC)COC(=O)C(C)=O = NO
• CN(C)CCNc1ccc(O)c2sc3ccccc3c(=O)c12 = NO
• O=C(CN(Cc1ccccc1)Cc1ccccc1)c1ccccc1 = NO
• c1ccc(CCc2c[nH]c3ccccc23)cc1 = NO
• CC1C=C(COC(=O)Nc2ccccc2)ON1c1ccccc1 (stereo unspecified) = NO
• C[n+]1c(-c2cccc(OCCOCCOc3cccc(-c4c5cc(N)ccc5c5ccc(N)cc5[n+]4C)c3)c2)c2cc(N)ccc2c2ccc(N)cc21 = NO
